# TARGET OR SYSTEM: T1, 4H3974-AA
# T1 chain: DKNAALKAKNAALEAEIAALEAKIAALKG
# EXPERIMENT: two-hybrid library CCmax;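 note: natural log of median RNA to DNA barcode read ratio; higher means stronger binding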
# TEST CONDITIONS: mean of both orientations
Field 'label' (enum: 1 / 0). Set to 1 when interaction score is strictly under 0.2; else 0.

| BINDER | QUALITATIVE LABEL |
| --- | --- |
| DENAALEAKIAALKAEIAALEAKIAALEG [4H1349-AA] | 1 |
| DEIAALEAKIAALKAENAALEAKIAALEG [4H341-AA] | 0 |
| DEIAALEAENAALEAEIAALEAKIAALEG [4H133-AA] | 0 |
| DENAALEAENAALKAKIAALKAKIAALKG [4H1262-AA] | 0 |
| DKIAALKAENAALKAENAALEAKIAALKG [4H2774-AA] | 1 |
| DEIAALEAKIAALKAEIAALEAENAALKG [4H324-AA] | 0 |
| DKNAALKAEIAALEAKIAALEAENAALEG [4H3619-AA] | 1 |
| DEIAALEAKIAALKAKNAALKAENAALKG [4H380-AA] | 1 |
| DENAALEAEIAALEAEIAALKAKNAALKG [4H1040-AA] | 0 |
